System: A549 cells
assay.procedure: MTT tumor cell growth inhibition, A549
Type: cell-based
condition.description: Homo sapiens, 48 h, read-out: Tumors growth-inhibitory activity (IC50) A549
pIC50: −log10 of the molar value.
In this section, each of the compounds is paired with its reported pIC50.

O=C1CCC[C@@H]2[C@H]3CCCN4CCC[C@@H](CN12)[C@@H]34 [Matrine, matrine]
< 4.00
O=C1c2ccccc2C(=O)N1C1CC[C@@H]2[C@H]3CCCN4CCC[C@@H](CN2C1=O)[C@@H]34 (some centres unmarked) [GJD 01]
4.00 to 4.30
COc1ccc2c(c1)C(=O)N(C1CC[C@@H]3[C@H]4CCCN5CCC[C@@H](CN3C1=O)[C@@H]45)C2=O (some centres unmarked) [GJD 16]
< 4.00
O=C1c2cccc(C(F)(F)F)c2C(=O)N1C1CC[C@@H]2[C@H]3CCCN4CCC[C@@H](CN2C1=O)[C@@H]34 (some centres unmarked) [GJD 07]
< 4.00

Okay, next one:
# get_value(readout='pIC50', item= NC1CC[C@@H]2[C@H]3CCCN4CCC[C@@H](CN2C1=O)[C@@H]34 (some centres unmarked) [Compound M-3, 14-amino-matrine] )
4.00 to 4.30

====

Tested on: Panc-1 cells
assay.procedure: Anti-tumor activity of NK cells activated by compounds, Panc-1 (CFSE/PI flow cytometry)
Assay type: cell-based
condition.description: Homo sapiens, tumor cells treated with 20 μM compound 48 h, then mixed with NK cells 5:1 for 4 hours, CFSE+PI+ tumor cells, read-out: Panc-1 inhibition rate (%)
observation.type: inhibition at 20 µM

# example entries with known answers
O=C1c2ccccc2CN1C1CC[C@@H]2[C@H]3CCCN4CCC[C@H](CN2C1=O)[C@@H]34 (stereo partly drawn)
< 50%
O=C1c2cccc([N+](=O)[O-])c2CN1C1CC[C@@H]2[C@H]3CCCN4CCC[C@@H](CN2C1=O)[C@@H]34 (stereo partly drawn)
≥ 50%

Okay, next one:
# get_value(readout='inhibition at 20 µM', item= O=C1c2cccc(C(F)(F)F)c2C(=O)N1C1CC[C@@H]2[C@H]3CCCN4CCC[C@@H](CN2C1=O)[C@@H]34 (stereo partly drawn) )
> 50%

====

System: A549 cells
assay.procedure: MTT tumor cell growth inhibition, A549
Format: cell-based
condition.description: Homo sapiens, 48 h, read-out: Tumors growth-inhibitory activity (IC50) A549
In this section, each of the compounds is paired with its reported IC50.

Nc1cccc2c1C(=O)N(C1CC[C@@H]3[C@H]4CCCN5CCC[C@@H](CN3C1=O)[C@@H]45)C2=O (stereo partly shown) [GJD 02]
50 to 100 µM
O=C1[C@@H](N2C(=O)c3ccccc3C2=O)CC[C@@H]2[C@H]3CCCN4CCC[C@@H](CN12)[C@@H]34 [GJD 25]
50 to 100 µM
N#Cc1cccc2c1C(=O)N(C1CC[C@@H]3[C@H]4CCCN5CCC[C@@H](CN3C1=O)[C@@H]45)C2=O (stereo partly shown) [GJD 06]
50 to 100 µM
O=C(NC1CC[C@@H]2[C@H]3CCCN4CCC[C@@H](CN2C1=O)[C@@H]34)c1ccc(OC(F)F)c(OCC2CC2)c1 (stereo partly shown) [GJD 52]
< 50 µM
O=C(Nc1cccc2c1CN(C1CC[C@@H]3[C@H]4CCCN5CCC[C@@H](CN3C1=O)[C@@H]45)C2=O)c1ccccc1 (stereo partly shown) [GJD 34]
50 to 100 µM

# get_value(readout='IC50', item= Nc1ccc(S(=O)(=O)NC2=CC[C@@H]3[C@H]4CCCN5CCC[C@@H](CN3C2=O)[C@@H]45)cc1 [GJD 47] )
50 to 100 µM

Now consider O=C(NC1CC[C@@H]2[C@H]3CCCN4CCC[C@@H](CN2C1=O)[C@@H]34)c1cc(Cl)ccc1O (stereo partly shown) [GJD 55] and answer again.
< 50 µM

====

In this section, each of the compounds is paired with its reported IC50.
Test system: Mia-paca2 cells
assay.procedure: MTT tumor cell growth inhibition, Mia-paca2
Type: cell-based
condition.description: Homo sapiens, MIA PaCa-2, 48 h, read-out: Tumors growth-inhibitory activity (IC50) Mia-paca2

# example entries with known answers
Nc1cccc2c1C(=O)N(C1CC[C@@H]3[C@H]4CCCN5CCC[C@@H](CN3C1=O)[C@@H]45)C2=O (stereo partly drawn)
50 to 100 µM
NC1CC[C@@H]2[C@H]3CCCN4CCC[C@@H](CN2C1=O)[C@@H]34 (stereo partly drawn)
> 100 µM
O=C(NC1CC[C@@H]2[C@H]3CCCN4CCC[C@@H](CN2C1=O)[C@@H]34)c1cc(Cl)ccc1O (stereo partly drawn)
50 to 100 µM
N#Cc1cccc2c1C(=O)N(C1CC[C@@H]3[C@H]4CCCN5CCC[C@@H](CN3C1=O)[C@@H]45)C2=O (stereo partly drawn)
50 to 100 µM

# get_value(readout='IC50', item= O=C1c2ccccc2C(=O)N1C1CC[C@@H]2[C@H]3CCCN4CCC[C@@H](CN2C1=O)[C@@H]34 (stereo partly drawn) )
> 100 µM

Now consider O=C1c2cccc(C(F)(F)F)c2C(=O)N1C1CC[C@@H]2[C@H]3CCCN4CCC[C@@H](CN2C1=O)[C@@H]34 (stereo partly drawn) and answer again.
50 to 100 µM

Now consider O=C1CCC[C@@H]2[C@H]3CCCN4CCC[C@@H](CN12)[C@@H]34 and answer again.
> 100 µM

Now consider Nc1ccc(S(=O)(=O)NC2=CC[C@@H]3[C@H]4CCCN5CCC[C@@H](CN3C2=O)[C@@H]45)cc1 and answer again.
> 100 µM

Now consider COc1ccc2c(c1)C(=O)N(C1CC[C@@H]3[C@H]4CCCN5CCC[C@@H](CN3C1=O)[C@@H]45)C2=O (stereo partly drawn) and answer again.
50 to 100 µM

Now consider O=C(Nc1cccc2c1CN(C1CC[C@@H]3[C@H]4CCCN5CCC[C@@H](CN3C1=O)[C@@H]45)C2=O)c1ccccc1 (stereo partly drawn) and answer again.
50 to 100 µM

Now consider O=C(NC1CC[C@@H]2[C@H]3CCCN4CCC[C@@H](CN2C1=O)[C@@H]34)c1ccc(OC(F)F)c(OCC2CC2)c1 (stereo partly drawn) and answer again.
50 to 100 µM

Now consider O=C1[C@@H](N2C(=O)c3ccccc3C2=O)CC[C@@H]2[C@H]3CCCN4CCC[C@@H](CN12)[C@@H]34 and answer again.
> 100 µM

====

System: MGC-803 cells
assay.procedure: MTT tumor cell growth inhibition, MGC-803
Type: cell-based
condition.description: Homo sapiens, 48 h, read-out: Tumors growth-inhibitory activity (IC50) MGC-803
In this section, each of the compounds is paired with its reported IC50.

# example entries with known answers
O=C(NC1CC[C@@H]2[C@H]3CCCN4CCC[C@@H](CN2C1=O)[C@@H]34)c1ccc(OC(F)F)c(OCC2CC2)c1 (stereo partly drawn)
50 to 100 µM
O=C1CCC[C@@H]2[C@H]3CCCN4CCC[C@@H](CN12)[C@@H]34
> 100 µM
O=C1c2ccccc2C(=O)N1C1CC[C@@H]2[C@H]3CCCN4CCC[C@@H](CN2C1=O)[C@@H]34 (stereo partly drawn)
> 100 µM

# get_value(readout='IC50', item= N#Cc1cccc2c1C(=O)N(C1CC[C@@H]3[C@H]4CCCN5CCC[C@@H](CN3C1=O)[C@@H]45)C2=O (stereo partly drawn) )
> 100 µM

====

Tested on: MGC-803 cells
assay.procedure: MTT tumor cell growth inhibition, MGC-803
Type: cell-based
condition.description: Homo sapiens, 48 h, read-out: Tumors growth-inhibitory activity (IC50) MGC-803
In this section, each of the molecules is paired with its reported IC50.

# example entries with known answers
COc1ccc2c(c1)C(=O)N(C1CC[C@@H]3[C@H]4CCCN5CCC[C@@H](CN3C1=O)[C@@H]45)C2=O (some centres unmarked)
50 to 100 µM
O=C(Nc1cccc2c1CN(C1CC[C@@H]3[C@H]4CCCN5CCC[C@@H](CN3C1=O)[C@@H]45)C2=O)c1ccccc1 (some centres unmarked)
50 to 100 µM
Nc1cccc2c1C(=O)N(C1CC[C@@H]3[C@H]4CCCN5CCC[C@@H](CN3C1=O)[C@@H]45)C2=O (some centres unmarked)
50 to 100 µM
O=C1[C@@H](N2C(=O)c3ccccc3C2=O)CC[C@@H]2[C@H]3CCCN4CCC[C@@H](CN12)[C@@H]34
> 100 µM
NC1CC[C@@H]2[C@H]3CCCN4CCC[C@@H](CN2C1=O)[C@@H]34 (some centres unmarked)
> 100 µM

Look up IC50 with MGC-803 cells for this molecule: Nc1ccc(S(=O)(=O)NC2=CC[C@@H]3[C@H]4CCCN5CCC[C@@H](CN3C2=O)[C@@H]45)cc1
> 100 µM

Now consider O=C1c2cccc(C(F)(F)F)c2C(=O)N1C1CC[C@@H]2[C@H]3CCCN4CCC[C@@H](CN2C1=O)[C@@H]34 (some centres unmarked) and answer again.
50 to 100 µM

Now consider O=C(NC1CC[C@@H]2[C@H]3CCCN4CCC[C@@H](CN2C1=O)[C@@H]34)c1cc(Cl)ccc1O (some centres unmarked) and answer again.
> 100 µM
